experiment: differential scanning calorimetry (DSC), thermal stability; format: physicochemical; conditions: thermal decomposition
The entries below come with measured Tm dec. (° C.) values attached.
outcome.measure: Tm dec. (° C.) (°C)

[[record]]
molecule = "O=C(O)[C@H]1CC[C@@]2(CC1)OOC1(O2)C2CC3CC(C2)CC1C3 (stereo partly shown) [OZ72]"
outcome_measure = "Tm dec. (° C.)"
value = 161.9

[[record]]
molecule = "CC(C)(C)ON=C1CCC2(CC1)OOC1(O2)C2CC3CC(C2)CC1C3 (stereo not shown) [OZ28]"
outcome_measure = "Tm dec. (° C.)"
value = 162.4

[[record]]
molecule = "N#CC1(c2ccc(Cl)c(Cl)c2)CCC2(CC1)OOC1(O2)C2CC3CC(C2)CC1C3 (stereo not shown) [OZ75]"
outcome_measure = "Tm dec. (° C.)"
value = 159.1

[[record]]
molecule = "O=C1C2C3CC4C5C3C1C5C1(OOC3(O1)C1CC5CC(C1)CC3C5)C42 (stereo not shown) [OZ14]"
outcome_measure = "Tm dec. (° C.)"
value = 113.3

[[record]]
molecule = "CON=C1CCC2(CC1)OOC1(O2)C2CC3CC(C2)CC1C3 (stereo not shown) [OZ15]"
outcome_measure = "Tm dec. (° C.)"
value = 157.8

[[record]]
molecule = "CC(=O)OCC(=O)N1CCC2(CC1)OOC1(O2)C2CC3CC(C2)CC1C3 (stereo not shown) [OZ82]"
outcome_measure = "Tm dec. (° C.)"
value = 153.7

[[record]]
molecule = "CC(C)C1CCC2(CC1)OOC1(O2)C2CC3CC(C2)CC1C3 (stereo not shown) [OZ40]"
outcome_measure = "Tm dec. (° C.)"
value = 164.2

[[record]]
molecule = "CC1(C)CCC2(CC1)OOC1(O2)C2CC3CC(C2)CC1C3 (stereo not shown) [OZ33]"
outcome_measure = "Tm dec. (° C.)"
value = 163.1

[[record]]
molecule = "C1CC2(CCN1)OOC1(O2)C2CC3CC(C2)CC1C3.Cl (stereo not shown) [OZ80]"
outcome_measure = "Tm dec. (° C.)"
value = 129.8

[[record]]
molecule = "c1ccc(C2CCC3(CC2)OOC2(CCC(c4ccccc4)CC2)O3)cc1 (stereo not shown) [OZ62]"
outcome_measure = "Tm dec. (° C.)"
value = 201.0


---

Tested on: 21-day-old schistosomules of Schistosoma mansoni
Assay: effect on 21-day-old schistosomules in mice
Assay type: in vivo
Conditions: total worm reduction rate; single 200 mg/kg per os
Method: […] Each group was treated per os with OZ compounds at a single dose of 200 mg/kg. Untreated mice served as the control. All groups were killed 4 weeks after treatment and the liver and intestine were removed and separated. The liver and intestine were compressed and alive male and female worms could be seen and counted. The effect of the compounds was evaluated by mean total and female worm burden.
# TWR (%) listing for each entry below
outcome.measure: TWR (%)

[[record]]
compound = "O=C1CCC2(CC1)OOC1(CCCCCCCCCCC1)O2"
study_target = "21-day-old schistosomules of Schistosoma mansoni"
value = "0%"

[[record]]
compound = "C1CCCCCC2(CCCCC1)OOC1(O2)C2CC3CC(C2)CC1C3 (stereo not shown)"
study_target = "21-day-old schistosomules of Schistosoma mansoni"
value = "0%"

[[record]]
compound = "c1ccc(C2CCC3(CC2)OOC2(O3)C3CC4CC(C3)CC2C4)cc1 (stereo not shown)"
study_target = "21-day-old schistosomules of Schistosoma mansoni"
value = "63%"

[[record]]
compound = "OC1CCC2(CC1)OOC1(O2)C2CC3CC(C2)CC1C3 (stereo not shown)"
study_target = "21-day-old schistosomules of Schistosoma mansoni"
value = "73%"

[[record]]
compound = "O=C1CCC2(CC1)OOC1(O2)C2CC3CC(C2)CC1C3 (stereo not shown)"
study_target = "21-day-old schistosomules of Schistosoma mansoni"
value = "90%"

[[record]]
compound = "O=C1C2C3CC4C5C3C1C5C1(OOC3(O1)C1CC5CC(C1)CC3C5)C42 (stereo not shown)"
study_target = "21-day-old schistosomules of Schistosoma mansoni"
value = "7%"

[[record]]
compound = "C1CC2(CCO1)OOC1(O2)C2CC3CC(C2)CC1C3 (stereo not shown)"
study_target = "21-day-old schistosomules of Schistosoma mansoni"
value = "75%"

